All figures here come from ChEMBL document CHEMBL5506042.

# test_protocol: Lipophilicity, LogD of the compound in 1-Octanol/PBS at pH 7.4 by miniaturized shake flask method
For each entry below, report its logD value.

Reported logD for CCOc1cncc(C(O)(c2ccc(OC(F)(F)F)cc2)C2(C)CN(C)C2)c1 (racemic) : what is it?
1.9

Form field: reported logD of CN1CC(F)(C(O)(c2ccc(OC(F)(F)F)cc2)c2cccc(Cl)c2)C1 (racemic)
> 4.1

So what's the measured logD for this one? CN1CC(CO)(C(O)(c2ccc(OC(F)(F)F)cc2)c2cccc(Cl)c2)C1 (racemic)
2.1

So what's the measured logD for this one? CN1CC(C)(C(O)(c2ccc(OC(F)(F)F)cc2)c2cncc(N3CCCC3)c2)C1 (racemic)
2.2

Consider the compound CN1CC(O)(C(O)(c2ccc(OC(F)(F)F)cc2)c2cccc(Cl)c2)C1 (racemic) and give its measured logD.
2.7
